# TESTED TARGET: Seed linoleate 13S-lipoxygenase-1 (Glycine max, UniProt P08170)
# Sequence (P08170 whole entry): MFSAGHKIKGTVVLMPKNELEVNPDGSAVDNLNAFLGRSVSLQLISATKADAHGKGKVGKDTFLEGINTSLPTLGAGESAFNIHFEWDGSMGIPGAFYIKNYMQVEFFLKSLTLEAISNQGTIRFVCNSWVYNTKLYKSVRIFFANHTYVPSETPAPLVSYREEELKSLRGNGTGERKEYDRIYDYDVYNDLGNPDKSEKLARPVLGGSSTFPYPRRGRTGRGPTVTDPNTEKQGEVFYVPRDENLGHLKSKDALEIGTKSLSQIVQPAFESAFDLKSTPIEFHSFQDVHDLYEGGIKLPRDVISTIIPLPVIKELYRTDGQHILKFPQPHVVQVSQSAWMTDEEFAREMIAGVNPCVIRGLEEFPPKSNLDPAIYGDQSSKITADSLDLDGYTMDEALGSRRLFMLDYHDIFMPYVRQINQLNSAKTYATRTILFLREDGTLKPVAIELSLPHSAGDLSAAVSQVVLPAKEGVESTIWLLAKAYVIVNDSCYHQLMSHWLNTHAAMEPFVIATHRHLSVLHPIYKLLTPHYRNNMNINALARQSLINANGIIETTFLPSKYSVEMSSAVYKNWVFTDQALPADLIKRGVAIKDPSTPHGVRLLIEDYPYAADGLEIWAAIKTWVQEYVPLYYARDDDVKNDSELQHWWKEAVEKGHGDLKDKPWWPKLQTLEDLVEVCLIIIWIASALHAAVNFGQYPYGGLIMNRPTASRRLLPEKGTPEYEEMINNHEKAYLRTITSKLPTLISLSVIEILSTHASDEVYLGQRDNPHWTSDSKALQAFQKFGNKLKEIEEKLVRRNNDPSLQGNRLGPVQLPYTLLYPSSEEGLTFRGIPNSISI
// reported IC50 per item
Answer in µM, number only, no unit symbol.

INSERT INTO results (compound, reading) VALUES
  ('CC(C)C1=C[C@H](O)[C@@](C)(O[C@@H]2OC(CO)[C@@H](O)[C@H](O)C2O)CC1 (some centres not stated)', 360);

Lab note: next compound to report on.
IC50 for O=C(/C=C/c1ccc(O)c2c1C(C(=O)O[C@@H](Cc1ccc(O)c(O)c1)C(=O)O)[C@@H](c1ccc(O)c(O)c1)O2)O[C@H](Cc1ccc(O)c(O)c1)C(=O)O (some centres not stated) [Lithospermic acid, 3] is 1000

Where do these numbers come from? They come from BindingDB's records for doi:10.1080/14756360600991017.
